- system_name: T1, cJun bZIP (human, UniProt P05412 252-308, limits assumed)
- T1 chain: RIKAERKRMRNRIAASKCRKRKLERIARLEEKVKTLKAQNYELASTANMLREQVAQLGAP
- test_method_notes: cell-based or functional assay
Numbered stars: 1 amine (or outer) side, 2 acyl side, 3 side chain; on linkers, the order of the positions; unused ones are H or OH. Bridge positions count the residues as written; N and C are the ends. Ends that are not written are not given here. mXylylene = c1cc(C[*:1])cc(C[*:2])c1

[
  {
    "binder": "EAEELVVEEDVLEEEIEQLEERNYALRSEICSLQCQ-NH2 (not fully specified; cysteine pairing not given here) [HingeW variant 0W, linear]",
    "IC50 (µM), CD": 86.7
  },
  {
    "binder": "EAEELVVEEDVLEEEIEQLEERNYALRAEICNLSCQ-NH2 (not fully specified; cysteine pairing not given here) [HingeW variant meta DBMBW, linear]",
    "IC50 (µM), CD": 91.1
  },
  {
    "binder": "EAEELVVEEDVLEEEIEQLEERNYALRAEICNLSCQ-NH2 (linker 31-35 via mXylylene; not fully specified) [HingeW variant meta DBMBW, cyclised]",
    "IC50 (µM), CD": 61.5
  },
  {
    "binder": "EAEELVVEEDVLEEEIEQLEERNYALRSEICSLQCQ-NH2 (linker 31-35 via mXylylene; not fully specified) [HingeW variant 0W, cyclised]",
    "IC50 (µM), CD": 77.6
  }
]
